# assay_system: SARS-CoV-2 P.1 Spike (Gamma) (SARS-CoV-2, UniProt P0DTC2 16-1213)
# assay_method_text: Octet BLI single point, monovalent
value_kind: Kd

binder: A-9 (antibody, V domains shown) VH: EVQLVESGGGLVKPGRSLRLSCAASGFTFADYAMSWFRQAPGKGLEWVGFIRSKPYGGTTEYAASVKGRFTISRDDSKSIAYLQMNSLKTEDTAVYYCSRDPWYCSGGDCYAVTGSWFDPWGQGTLVTVSS VL: DIVLTQSPSSLSASVGDRVTITCQASQDIKKYLNWYQQKPGKAPKLLIYDVSNLETGVPSRFSGSGSGTDFTFTISSLQPEDVAIYYCQQYDNLPQTFGQGTKVDIK
observed_result: 15 nM
--
binder: A-18 (antibody, V domains shown) VH: EVQLLESGGGLVQPGGSLRLSCAASGFTFSRYWMHWVRQAPGKGLVWVSRINSDGSSTTYADSVKGRFTISRDNAKNTLYLQMNSLRAEDTAVYYCARELYYYDSRGAEEGEGWFDPWGQGTLVTVSS VL: QSVLTQPPSVSGAPGQRVTISCTGISSNIGAGYDVHWYQQLPGTAPKLLIYGNSNRPSGVPDRFSASKSGTSAPLAITGLQAEDEADYYCQSSDRSLSGSVFGTGTKLTVL
observed_result: 0.553 nM
--
binder: A-16 (antibody, V domains shown) VH: QVQLVESGGGLVQPGRSLRLSCAASGFTFDDYAMHWVRQAPGKGLEWVSGISWNSGTIGYADSVKGRFIISRDNAKNSLYLQMNSLRGEDMALYYCGKDRKREDPSLGGMDVWGQGTTVTVSS VL: SYELTQPPSVSVAPGQTARITCGGNNIGSKSVHWYQQKPGQAPVLVVYDDTDRPSGIPERFSGSNSGNTATLTISRVEAGDEADYYCQVWDSSSDHYVFGTGTKLTVL
observed_result: 4.83 nM
--
binder: A-6 (antibody, V domains shown) VH: QVQLVQSGGGVVQPGRSLRLSCAASGFTFSNFAMHWVRQAPGKGLEWVAVILYDGINKYYADSVKGRFTISRGNSKNTLSLQMNSLRAEDTAVYYCARAQNYYDRSGTLQLDAFDIWGQGTMVTVSS VL: DIVMTQSPSSLSASVGDRVTITCRASQGIRNDLGWYQQKPGKAPKLLIYAASSLQSGVPSRFSGSGSGTDFTLTISSLQPEDFATYYCLQDYNYPLTFGGGTKVEIK
observed_result: 2.05 nM
